# test-target: Prostaglandin E synthase (Homo sapiens, UniProt O14684)
# Sequence (O14684 whole entry): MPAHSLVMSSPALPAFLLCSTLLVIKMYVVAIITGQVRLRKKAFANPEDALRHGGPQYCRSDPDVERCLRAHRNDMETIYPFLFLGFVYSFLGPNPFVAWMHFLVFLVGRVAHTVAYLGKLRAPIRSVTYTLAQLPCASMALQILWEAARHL
# protocol-details: Inhibition of human A549 cell microsomal membrane-derived mPGES-1 assessed as reduction in conversion of PGH2 to PGE2 preincubated for 15 mins followed by PGH2 addition measured after 1 min by RP-HPLC analysis
property-name: pIC50
Recall that pIC50 is obtained by taking minus log10 of the concentration measured in molar.

Answered examples (2):
Enquiry: Report pIC50 for COc1c(CC=C(C)C)c(O)c(C(CC(C)C)c2c(O)c(C(C)=O)c(O)c3c2OC(C(C)(C)O)C3)c(O)c1C(C)=O (centres undefined) please.
Return: 5.89

Enquiry: Report pIC50 for CC(=O)c1c(O)c(C/C=C(/C)CCC=C(C)C)c(O)c(C(CC(C)C)c2c(O)c(C/C=C(\C)CCC=C(C)C)c(O)c(C(C)=O)c2O)c1O (centres undefined) please.
Return: 5.27

Now examine the next entry.
Enquiry: Report pIC50 for `CC(=O)c1c(O)cc(O)c(C(CC(C)C)c2c(O)cc(O)c(C(C)=O)c2O)c1O` please.
Return: 6.00
